- protocol.text: Inhibitory concentration ratio of PDE1 to that of PDE7

>  <sample.smiles>
CCOC(=O)c1sc(Nc2nc(NCc3ccc4c(c3)OCO4)c3c(ncn3CC)n2)nc1C

>  <Ratio>
19

$$$$
>  <sample.smiles>
CCOC(=O)c1sc(Nc2nc(NCc3ccc(S(N)(=O)=O)cc3)c3ncn(CC)c3n2)nc1C

>  <Ratio>
200

$$$$
>  <sample.smiles>
CCOC(=O)c1sc(Nc2nc(NCc3ccc(S(C)(=O)=O)cc3)c3c(ncn3CC)n2)nc1C

>  <Ratio>
18

$$$$
>  <sample.smiles>
CCOC(=O)c1sc(Nc2nc(NCc3ccc(OCc4ccccc4)c(OC)c3)c3c(ncn3CC)n2)nc1C

>  <Ratio>
1.3

$$$$
>  <sample.smiles>
CCn1cnc2nc(Nc3nc(C)c(C(=O)Nc4ccccc4)s3)nc(NCc3ccc(OC)c(OC)c3)c21

>  <Ratio>
12

$$$$
>  <sample.smiles>
CCOC(=O)c1sc(Nc2nc(NCc3cc(OC)c(OC)c(OC)c3)c3c(ncn3CC)n2)nc1C

>  <Ratio>
1.7

$$$$
>  <sample.smiles>
CCOC(=O)c1sc(Nc2nc(N3CCc4cc(OC)c(OC)cc4C3)c3c(ncn3CC)n2)nc1C

>  <Ratio>
2.8

$$$$
